assay: NCI Yeast Anticancer Drug Screen. Data for the mlh1 rad18 strain (AID 175); details: S. cerevisiae mlh1 rad18 strain growth inhibition; at 50.0 µM; active compounds read high
About 79,000 compounds went through this panel and 15% of them were active in at least one assay; those are over-represented in the sample as a whole.
growth inhibition values for the molecules below.
measured quantity: growth inhibition (%)

molecule | reading
CC(C)CC(C)(CC(C)C)C(=O)O | 11.8
Cc1cccc(C)c1OC(=O)Nc1ccccc1 | -8.95
C=CCOc1cc2c(cc1C(C)c1ccc(OC)cc1)OCO2 (centres undefined) | -0.6
COc1cc2c[n+]3c4c(cccc4c2cc1OC)CC3 | -13.7
CC(C)CCCC(C)C1CCC2C1CCC1C2CCC2(C)CCC(=O)CCC12C (centres undefined) | -4
CCN(CC)CC(C(=O)Nc1c(C)cccc1C)/C(C)=N\NC(=O)C[N+](C)(C)C (centres undefined) | -1.9
CC(=O)OCC12C(OC(C)=O)C(=O)C3C(OC(C)=O)C14OC3(C)COC(=O)c1cccnc1C(C)C(C)C(=O)OC(C(OC(C)=O)C2OC(C)=O)C4(C)O (centres undefined) | -85
Nc1c(N=Nc2ccc(S(=O)(=O)O)cc2)cc2c3c(cccc13)CC2 | 2.4
Cc1ccc(Nc2nc(C)c(C(=O)CC(=O)C(=O)Nc3c(C)cccc3C(C)(C)C)s2)cc1 | 2.85

---

assay: NCI Yeast Anticancer Drug Screen. Data for the rad50 strain (AID 155);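 also: 0% = growth of vehicle-only cultures of the same strain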; conditions: S. cerevisiae rad50 strain growth inhibition; at 50.0 µM; active compounds read high
About 79,000 compounds went through this panel and 15% of them were active in at least one assay; those are over-represented in the sample as a whole. Activity calls are given as the source filed them. Rule as the data show it: active = growth inhibition above about 70%; inactive = the rest. Where a SMILES comes first, the peptide text is derived from it. The star is where a group is joined. Boc = CC(C)(C)OC(=O)*

molecule | growth inhibition
N#Cc1ccccc1-c1ccccc1/C=C/C(=O)O | -20.4% (inactive)
CC1=CC2=NCC(O)CN2C=C1 (stereo not given) | -4.2% (inactive)
CC(=O)OCC1OC(n2c(C)c(C(C)=O)c(-c3cccc4ccccc34)c(C#N)c2=S)C(OC(C)=O)C(OC(C)=O)C1OC(C)=O (stereo not given) | 25.1% (inactive)
Cc1ccc(S(=O)(=O)OC2CCCCCC2c2ccccc2)cc1 (stereo not given) | 7.85% (inactive)
CCc1c(C)[nH]c(C2=NCCC2)c1C | -10.6% (inactive)
O=C(CCCCC(=O)N1CCOCC1)N1CCOCC1 | -9.3% (inactive)
C[Si](C)(C)c1ccc2c(c1O)C(=O)c1ccccc1C2=O | 10.6% (inactive)
NC(CCC(=O)NC1(C(=O)O)C2CC3CC(C2)CC1C3)C(=O)O (stereo not given) | 6% (inactive)
CC1CC2C3(C1)CC(C(=O)OC3=O)C2(C)C (stereo not given) | -3.4% (inactive)
CC1(C)OCC2(CO1)CSCCCSCC1(COC(C)(C)OC1)CSCCCSC2 | -5.65% (inactive)
CC(C)(C)OC(=O)NC(Cc1ccc(O)cc1)C(=O)N1CCCC1C(=O)O (stereo not drawn) (Boc-Tyr-Pro-OH; configuration not given here) | -13% (inactive)
COc1ccc(/C=C/C(C)=O)c(OC)c1 | 3% (inactive)
Cc1cc2nc(-c3cc4cc(Cl)cc(Cl)c4oc3=O)[nH]c2cc1C | 10.6% (inactive)
Cc1cnc2[nH]c(-c3ccccc3)cc(=O)c2c1 | -6.7% (inactive)
COC(=O)/C=C/c1cc(OC)c2c(c1)C(C(=O)OC)C(c1ccc(O)c(OC)c1)O2 (stereo not given) | -2.75% (inactive)
